Target: T1, hPRLR.mmh (soluble monomeric human PRLR) (human)
T1 construct: soluble monomeric PRLR protein
T1 chain: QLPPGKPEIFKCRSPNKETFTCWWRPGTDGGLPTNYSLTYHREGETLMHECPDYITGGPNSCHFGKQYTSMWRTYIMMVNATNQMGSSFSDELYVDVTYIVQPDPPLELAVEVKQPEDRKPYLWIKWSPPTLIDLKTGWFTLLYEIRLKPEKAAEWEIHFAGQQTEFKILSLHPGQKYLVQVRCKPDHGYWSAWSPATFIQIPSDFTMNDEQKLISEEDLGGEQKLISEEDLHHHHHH
Assay: SPR (Biacore), antibody capture, 37 C
Lab note: compare kon with 900000 M⁻¹ s⁻¹, writing 1 if less and 0 if equal or more.

{"columns": ["BINDER", "ASSIGNED CLASS"],
 "data": [
  ["H1H6790P (antibody, human IgG1, V domains shown, human IgG1 Fc (H1H)) VH: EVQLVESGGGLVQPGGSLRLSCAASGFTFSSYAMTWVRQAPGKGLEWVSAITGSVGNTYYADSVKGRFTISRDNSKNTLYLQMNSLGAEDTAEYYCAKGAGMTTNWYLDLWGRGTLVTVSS VL: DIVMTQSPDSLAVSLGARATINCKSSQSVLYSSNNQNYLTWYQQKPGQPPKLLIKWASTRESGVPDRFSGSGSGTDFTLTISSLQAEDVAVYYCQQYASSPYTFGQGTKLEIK", 0],
  ["H1H6762P (antibody, human IgG1, V domains shown, human IgG1 Fc (H1H)) VH: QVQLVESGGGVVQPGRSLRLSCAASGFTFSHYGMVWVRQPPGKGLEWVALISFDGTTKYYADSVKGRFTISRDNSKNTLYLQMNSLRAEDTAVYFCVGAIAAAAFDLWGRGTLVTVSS VL: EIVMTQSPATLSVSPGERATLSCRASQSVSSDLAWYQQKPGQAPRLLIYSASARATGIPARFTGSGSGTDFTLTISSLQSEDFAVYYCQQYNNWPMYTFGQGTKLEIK", 0],
  ["H1H6804P (antibody, human IgG1, V domains shown, human IgG1 Fc (H1H)) VH: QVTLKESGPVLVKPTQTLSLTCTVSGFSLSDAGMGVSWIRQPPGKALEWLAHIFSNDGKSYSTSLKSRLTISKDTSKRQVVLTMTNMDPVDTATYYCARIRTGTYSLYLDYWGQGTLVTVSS VL: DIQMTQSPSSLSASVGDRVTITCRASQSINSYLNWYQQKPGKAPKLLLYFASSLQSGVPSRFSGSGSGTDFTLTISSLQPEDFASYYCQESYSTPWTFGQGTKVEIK", 1],
  ["H1H6975N (antibody, human IgG1, V domains shown, also called H2M6975N) VH: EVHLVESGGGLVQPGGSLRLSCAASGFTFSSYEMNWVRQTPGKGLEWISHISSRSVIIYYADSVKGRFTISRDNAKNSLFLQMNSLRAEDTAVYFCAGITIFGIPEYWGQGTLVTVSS VL: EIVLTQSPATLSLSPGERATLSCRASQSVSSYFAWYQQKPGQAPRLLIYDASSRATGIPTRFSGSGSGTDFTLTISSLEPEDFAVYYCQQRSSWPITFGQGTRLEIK", 1]
]}

// next entry
Check if kon falls below 900000 M⁻¹ s⁻¹ for H1H6801P (antibody, human IgG1, V domains shown, human IgG1 Fc (H1H)) VH: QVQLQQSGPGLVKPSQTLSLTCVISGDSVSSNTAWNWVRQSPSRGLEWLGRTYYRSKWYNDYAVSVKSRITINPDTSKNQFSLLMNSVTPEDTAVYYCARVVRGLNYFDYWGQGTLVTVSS VL: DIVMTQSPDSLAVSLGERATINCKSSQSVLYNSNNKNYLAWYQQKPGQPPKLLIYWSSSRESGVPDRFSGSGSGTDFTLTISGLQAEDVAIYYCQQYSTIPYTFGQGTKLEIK .
0
